Assay: Toxicity liver stage against HepG2, at 10uM
Assay type: cell-based
Parameters: test concentration 10 uM, cell line HepG2-A16-CD81EGFP
Settings: human, HepG2-A16-CD81EGFP cells; read-out: INHIBITION
READOUT: cytotoxicity at 10 µM (%)

- COc1cccc(CCC(=O)N2CCCCC2Cn2cccn2)c1 (stereo unspecified): -11.3
- CCC(C(=O)NCc1ccncc1)N(c1cccc(C)c1)S(C)(=O)=O (stereo unspecified): -5.88
- O=C1NCCN(C(=O)CCN2CCCO2)C1c1cccc(F)c1 (stereo unspecified): 5.47
- Cc1ccc(OCC(=O)Nc2ncccc2OC(F)F)cc1: 6.42
- CN1CC[C@H]2CN(C(=O)c3ccc4sc5c(c4c3)CCNC5=O)C[C@H]21: -0.193
- CCOCC1CN(c2ccncn2)Cc2cnn(CC3CC3)c21 (stereo unspecified): 6.38
- COCCn1cc(NC(=O)NC(C)c2ccc(Cl)s2)cn1 (stereo unspecified): 7.25
- Cc1cc(CN2CCCC2)cc(Oc2ccc(C(F)(F)F)cn2)c1: -9.72
- Cc1cc(CS(=O)(=O)c2ccccc2)no1: 10.5
- CS(=O)(=O)N1C[C@H]2CC[C@@H](C1)N(C(=O)Cn1nc3ccccc3n1)C2: 10.8
- Cn1ccnc1SCc1nc(C(C)(C)NC(=O)OC(C)(C)C)no1: -0.679

Data provenance: ChEMBL document CHEMBL4513216
